# credit: patent US20230106715A1

# measuredTarget: T1, human Siglec15-Fc protein (human)
# T1 construct: In house made; also called recombinant human Siglec15 protein with human IgG1 Fc at the C-terminus
# T1 sequence (chain, as listed by the source limits assumed): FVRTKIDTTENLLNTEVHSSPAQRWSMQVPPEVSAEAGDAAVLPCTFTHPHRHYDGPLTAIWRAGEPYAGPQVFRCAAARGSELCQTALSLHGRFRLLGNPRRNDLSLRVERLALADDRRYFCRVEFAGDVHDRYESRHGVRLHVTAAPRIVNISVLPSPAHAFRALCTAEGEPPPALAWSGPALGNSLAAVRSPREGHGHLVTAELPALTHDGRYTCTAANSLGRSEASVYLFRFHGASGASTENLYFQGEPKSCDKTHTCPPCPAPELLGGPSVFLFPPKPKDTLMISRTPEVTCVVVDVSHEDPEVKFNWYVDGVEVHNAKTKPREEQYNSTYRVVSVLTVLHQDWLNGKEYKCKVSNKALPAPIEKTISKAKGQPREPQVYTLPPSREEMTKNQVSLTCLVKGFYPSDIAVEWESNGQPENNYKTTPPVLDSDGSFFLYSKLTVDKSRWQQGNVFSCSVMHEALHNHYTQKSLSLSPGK
# assayInfo: competitive ELISA: biotin-labeled human Siglec15-Fc in solution, competitor coated benchmark
measureName: pIC50
Note on units: pIC50 is unitless, being -log10 of a concentration expressed in mol/L.

Reference set, count: 2
{"binder": "A2A5C7E8 (antibody, V domains shown, Fully human antibody from transgenic mouse hybridoma; also called A2A5C7E8-1) VH: EVQLVQSGAEVKKPGESLRISCKGSGYSFTTYWISWVRQMPGKGLEWMGLIDPSDSYTNYSPSFQGHVTISTDKSISTAYLQWSSLKASDTAMYYCARGGYYGSEEDYWGQGTLVTVSS VL: EIVLTQSPGTLSLSPGERATLSCRASQSVSSSRLAWFQQKSGQAPRLLIFDASSRATGIPDRFSGSGSGTDFTLTISRLEPEDFAVYYCQQYGSSPRTFGQGTKVEFK", "pIC50": 10.41}
{"binder": "A2A5C7E8-2 (antibody, human IgG1, kappa, V domains shown, Variant of A2A5C7E8 modified in VH CDR2 (X1 = E)) VH: EVQLVQSGAEVKKPGESLRISCKGSGYSFTTYWISWVRQMPGKGLEWMGLIDPSESYTNYSPSFQGHVTISTDKSISTAYLQWSSLKASDTAMYYCARGGYYGSEEDYWGQGTLVTVSS VL: EIVLTQSPGTLSLSPGERATLSCRASQSVSSSRLAWFQQKSGQAPRLLIFDASSRATGIPDRFSGSGSGTDFTLTISRLEPEDFAVYYCQQYGSSPRTFGQGTKVEFKR", "pIC50": 10.75}

Okay, now this binder:
## Task Using the record for A2A5C7E8-3 (antibody, human IgG1, kappa, V domains shown, Variant of A2A5C7E8 modified in VH CDR2 (X2 = K)) VH: EVQLVQSGAEVKKPGESLRISCKGSGYSFTTYWISWVRQMPGKGLEWMGLIDPSDSYTNYSPSFKGHVTISTDKSISTAYLQWSSLKASDTAMYYCARGGYYGSEEDYWGQGTLVTVSS VL: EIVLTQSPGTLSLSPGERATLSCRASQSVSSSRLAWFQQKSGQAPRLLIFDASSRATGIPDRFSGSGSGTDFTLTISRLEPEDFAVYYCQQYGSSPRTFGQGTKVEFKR , report its pIC50.
## Result 10.45
